Where do these numbers come from? They come from patent US8268873B2.

- system_under_test: IMPDH human type II (Homo sapiens, UniProt P12268)
- assay_comment: biochemical
- experimental_context: IMPDH human type II, 200 μM IMP, 200 μM NAD, 37° C.
pKi: −log10 of the molar value.
readout: pKi

q: Read off the recorded pKi for `CC[C@H](COC(=O)CN)OC(=O)NCc1cccc(NC(=O)Nc2ccc(-c3cnco3)c(OC)c2)c1`
a: > 8.00

---

- System: human PBMC B cells
- assay_comment: cells
- Format: cell-based
- experimental_context: read-out: B-cells (IC50)
pIC50: −log10 of the molar value.
readout: pIC50

q: Write down pIC50 measured for item `COc1cc(NC(=O)Nc2cccc([C@H](C)NC(=O)O[C@H]3CCOC3)c2)ccc1C#N`
a: > 7.00
